# Test system: IFNγ-Induced NO Production in RAW 264.7 cells
# Method description: Nitric Oxide Suppression Assay (suppression of IFNγ-induced NO production)
# Format: cell-based
# Setup conditions: RAW264.7; RAW 264.7 mouse macrophage cells, 20 ng/mL interferon gamma, Griess detection; single curve fit to mean data of n=2-3
Measurement name: IC50 (µM)
One number for each entry, in µM.

Below, each entry is followed by its recorded IC50 result.
Entry smiles	Assayed system	IC50, µM
COc1ccccc1CNC(=O)[C@@]1(C)CC[C@]2(C)CC[C@@]3(C)[C@]4(C)CC[C@H]5C(C)(C)C(=O)C(C#N)=C[C@]5(C)C4=CC(=O)[C@]3(O)[C@@H]2C1	IFNγ-Induced NO Production in RAW 264.7 cells	0.0607
COC(=O)[C@@]1(C)CC[C@]2(C)CC[C@@]3(C)[C@]4(C)CC[C@H]5C(C)(C)C(=O)C(C#N)=C[C@]5(C)C4=CC(=O)[C@]3(O)[C@@H]2C1	IFNγ-Induced NO Production in RAW 264.7 cells	0.0161

input: Please give measured IC50 of the following entry: `C[C@H](NC(=O)[C@@]1(C)CC[C@]2(C)CC[C@@]3(C)[C@]4(C)CC[C@H]5C(C)(C)C(=O)C(C#N)=C[C@]5(C)C4=CC(=O)[C@]3(O)[C@@H]2C1)c1ccccc1`
output: 0.0386
